biological target: STAT6 (Homo sapiens, UniProt P42226); construct: endogenous in cells; host or cells: A549 (STAT6-HiBiT), endogenous locus tagged; test: STAT6 HiBiT degradation in A549 (STAT6-HiBiT) cells; type: cell-based; conditions: 24 h
Sequence (P42226 whole entry): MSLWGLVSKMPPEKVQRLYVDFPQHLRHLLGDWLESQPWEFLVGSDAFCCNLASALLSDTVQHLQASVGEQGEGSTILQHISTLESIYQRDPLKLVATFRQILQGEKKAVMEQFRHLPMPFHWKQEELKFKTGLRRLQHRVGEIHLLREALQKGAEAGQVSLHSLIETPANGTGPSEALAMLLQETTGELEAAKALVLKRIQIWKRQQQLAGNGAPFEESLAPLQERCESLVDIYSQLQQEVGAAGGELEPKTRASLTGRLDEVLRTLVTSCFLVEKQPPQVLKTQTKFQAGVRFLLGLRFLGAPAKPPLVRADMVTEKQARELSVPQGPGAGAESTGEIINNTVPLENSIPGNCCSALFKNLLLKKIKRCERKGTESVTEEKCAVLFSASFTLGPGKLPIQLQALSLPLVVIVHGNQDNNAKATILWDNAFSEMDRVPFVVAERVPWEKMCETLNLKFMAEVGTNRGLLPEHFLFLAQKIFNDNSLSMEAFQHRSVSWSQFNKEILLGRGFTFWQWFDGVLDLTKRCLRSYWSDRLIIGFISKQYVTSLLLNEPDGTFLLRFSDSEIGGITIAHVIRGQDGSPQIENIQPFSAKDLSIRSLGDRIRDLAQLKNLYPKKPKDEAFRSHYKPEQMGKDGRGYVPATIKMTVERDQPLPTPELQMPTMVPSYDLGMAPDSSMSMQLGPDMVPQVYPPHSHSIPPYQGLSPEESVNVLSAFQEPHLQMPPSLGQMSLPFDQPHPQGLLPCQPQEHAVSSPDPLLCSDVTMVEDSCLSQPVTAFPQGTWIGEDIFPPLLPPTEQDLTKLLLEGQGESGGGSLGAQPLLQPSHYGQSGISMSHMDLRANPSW
quantity-kind: DC50

- compound: "COc1cc(N2CCN(CCc3cccc4c3n(C)c(=O)n4C3CCC(=O)NC3=O)CC2)ccc1-c1cc(C2=CCCN(C(=O)CCn3ccnn3)C2)cnc1CNC(=O)N(C)C (stereo not shown)"
  test-system: "STAT6 (Homo sapiens, UniProt P42226)"
  result: "> 1000 nM"
- compound: "COc1cc(N2CCN(CCc3cccc4c3n(C)c(=O)n4C3CCC(=O)NC3=O)CC2)ccc1-c1cc(C2=CCCN(C(=O)CCn3ccnn3)C2)c(F)c2cnccc12 (stereo not shown)"
  test-system: "STAT6 (Homo sapiens, UniProt P42226)"
  result: "> 1000 nM"
- compound: "COc1cc(N2CCN(CCc3cccc4c3n(C)c(=O)n4C3CCC(=O)NC3=O)CC2)ccc1-c1cc(C2=CCCN(C(=O)CCn3ccnn3)C2)cc2c1CN(C(=O)N(C)C)C2 (stereo not shown)"
  test-system: "STAT6 (Homo sapiens, UniProt P42226)"
  result: "10 to 100 nM"
- compound: "COc1cc(N2CCN(CCc3cccc4c3n(C)c(=O)n4C3CCC(=O)NC3=O)CC2)ccc1-c1cc(C2CCCCN(C(=O)CCn3ccnn3)C2)c(F)c2[nH]c(C(=O)N(C)C)cc12 (stereo not shown)"
  test-system: "STAT6 (Homo sapiens, UniProt P42226)"
  result: "< 1 nM"
- compound: "COc1cc(N2CCN(CCc3cccc4c3n(C)c(=O)n4C3CCC(=O)NC3=O)CC2)ccc1-c1cc(C(=O)N(C)C)ccc1C1=CCCN(C(=O)CCn2ccnn2)C1 (stereo not shown)"
  test-system: "STAT6 (Homo sapiens, UniProt P42226)"
  result: "100 to 1000 nM"
- compound: "COc1cc(N2CCN(CCc3cccc4c3n(C)c(=O)n4C3CCC(=O)NC3=O)CC2)ccc1-c1cc(NC(=O)CCn2ccnn2)ccc1-c1ncc(C(=O)N(C)C)[nH]1 (stereo not shown)"
  test-system: "STAT6 (Homo sapiens, UniProt P42226)"
  result: "> 1000 nM"
- compound: "COc1cc(N2CCN(CCc3cccc4c3n(C)c(=O)n4C3CCC(=O)NC3=O)CC2)ccc1-c1cc(C2=CCCN(C(=O)CCn3ccnn3)C2)cc2cc(C(=O)N(C)C)cnc12 (stereo not shown)"
  test-system: "STAT6 (Homo sapiens, UniProt P42226)"
  result: "> 1000 nM"
- compound: "COc1cc(N2CCN(CCc3cccc4c3n(C)c(=O)n4C3CCC(=O)NC3=O)CC2)ccc1-c1cc(C2=CCCN(C(=O)CCn3ccnn3)C2)cc2ccc(C(=O)N(C)C)cc12 (stereo not shown)"
  test-system: "STAT6 (Homo sapiens, UniProt P42226)"
  result: "< 1 nM"
- compound: "COc1cc(N2CCN(CCc3cccc4c3n(C)c(=O)n4C3CCC(=O)NC3=O)CC2)ccc1-c1cc(C2=CCCN(C(=O)CCn3ccnn3)C2)ccc1-n1ccccc1=O (stereo not shown)"
  test-system: "STAT6 (Homo sapiens, UniProt P42226)"
  result: "> 1000 nM"
- compound: "COc1cc(N2CCN(CCc3cccc4c3n(C)c(=O)n4C3CCC(=O)NC3=O)CC2)ccc1-c1cc(Nc2ccccn2)c(F)c(C2=CCCN(C(=O)CCn3ccnn3)C2)c1 (stereo not shown)"
  test-system: "STAT6 (Homo sapiens, UniProt P42226)"
  result: "< 1 nM"
- compound: "COc1cc(N2CCN(CCc3cccc4c3n(C)c(=O)n4C3CCC(=O)NC3=O)CC2)ccc1-c1cc(C2=CCCN(C(=O)CCn3ccnn3)C2)c(F)c2ccncc12 (stereo not shown)"
  test-system: "STAT6 (Homo sapiens, UniProt P42226)"
  result: "> 1000 nM"
- compound: "COc1cc(N2CCN(CCc3cccc4c3n(C)c(=O)n4C3CCC(=O)NC3=O)CC2)ccc1-c1cc(-c2cccc(C(=O)N(C)C)c2)c(F)c2[nH]c(C(=O)N(C)C)cc12 (stereo not shown)"
  test-system: "STAT6 (Homo sapiens, UniProt P42226)"
  result: "1 to 10 nM"
- compound: "COc1cc(N2CCN(CCc3cccc4c3n(C)c(=O)n4C3CCC(=O)NC3=O)CC2)ccc1-c1cc(C2=CCCN(C(=O)CCn3ccnn3)C2)ccc1C(=O)N(C)C (stereo not shown)"
  test-system: "STAT6 (Homo sapiens, UniProt P42226)"
  result: "> 1000 nM"
